Data credit: paper PMC5306247

Assay: Clinical pharmacokinetics of CLP and its metabolites in plasma
Format: in vivo, patients (human)
Settings: human, plasma, oral, 75 mg
Property label: Tmax

Sample `COC(=O)[C@H](c1ccccc1Cl)N1CCc2sccc2C1` — what was its Tmax?
1 h
